Biological target: Ba/F3-FL-TYK2-E957D cells (Homo sapiens, UniProt P29597, E957D, cells depend on it)
Sequence (P29597 whole entry E957D): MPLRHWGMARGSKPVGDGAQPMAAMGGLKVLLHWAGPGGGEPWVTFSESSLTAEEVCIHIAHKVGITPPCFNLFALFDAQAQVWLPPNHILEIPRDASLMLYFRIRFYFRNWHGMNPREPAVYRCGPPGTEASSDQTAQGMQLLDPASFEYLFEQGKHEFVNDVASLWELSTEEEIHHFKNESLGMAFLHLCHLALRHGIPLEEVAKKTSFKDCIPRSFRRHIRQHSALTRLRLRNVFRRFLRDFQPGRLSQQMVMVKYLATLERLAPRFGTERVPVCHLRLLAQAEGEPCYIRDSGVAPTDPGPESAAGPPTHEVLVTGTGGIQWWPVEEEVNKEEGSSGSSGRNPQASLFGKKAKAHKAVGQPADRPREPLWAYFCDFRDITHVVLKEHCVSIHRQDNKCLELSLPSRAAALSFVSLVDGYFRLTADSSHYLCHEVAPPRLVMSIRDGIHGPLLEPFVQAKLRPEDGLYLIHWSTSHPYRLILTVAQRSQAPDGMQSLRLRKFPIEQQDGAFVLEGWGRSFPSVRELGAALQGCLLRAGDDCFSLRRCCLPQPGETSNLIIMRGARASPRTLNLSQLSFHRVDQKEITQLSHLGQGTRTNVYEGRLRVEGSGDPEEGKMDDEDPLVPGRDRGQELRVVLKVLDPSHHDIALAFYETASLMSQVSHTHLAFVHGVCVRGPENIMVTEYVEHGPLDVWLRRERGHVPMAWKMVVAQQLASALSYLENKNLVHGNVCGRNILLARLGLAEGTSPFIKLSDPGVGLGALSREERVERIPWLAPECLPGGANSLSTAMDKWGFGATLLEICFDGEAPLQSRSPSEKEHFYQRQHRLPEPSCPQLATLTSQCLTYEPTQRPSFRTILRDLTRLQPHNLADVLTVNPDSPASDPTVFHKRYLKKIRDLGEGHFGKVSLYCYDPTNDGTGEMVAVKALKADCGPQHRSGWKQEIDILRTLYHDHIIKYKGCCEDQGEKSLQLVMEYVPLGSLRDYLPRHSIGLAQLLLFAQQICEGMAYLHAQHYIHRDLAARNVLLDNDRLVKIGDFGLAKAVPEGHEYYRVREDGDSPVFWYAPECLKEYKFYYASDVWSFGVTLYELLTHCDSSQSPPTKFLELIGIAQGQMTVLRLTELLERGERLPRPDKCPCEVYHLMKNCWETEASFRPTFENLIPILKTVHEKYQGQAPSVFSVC
Experiment: Proliferation of Ba/F3-FL-TYK2-E957D cells (CellTiter-Glo)
Format: cell-based, mouse
Conditions: 72 hours, read-out: Half maximal inhibitory concentration IC50 for cells Ba/F3-FL-TYK2-E957D
Source text: Adenosine triphosphate (ATP) serves as a universal energy carrier in various life processes, representing the smallest unit of energy storage and transfer. […] By adding CellTiter-Glo™ reagent to the cell culture medium and measuring the luminescence, the light signal was directly proportional to the amount of ATP in the system, and ATP was positively correlated with the number of viable cells. Therefore, cell proliferation can be detected by measuring ATP content using the CellTiter-Glo kit. […]
VALUE_KIND: GI50 (nM)
Field: numeric (nM). Do not append units.

For reference, reported GI50 for CNC(=O)c1nnc(NC(=O)C2CC2)cc1Nc1cccc(-c2ccc(S(=N)(=O)C(C)C)nc2)c1OC (single isomer, unassigned) [WX-037B] stands at 17

Recorded GI50 (compound "CCP(=O)(CC)c1ccc(-c2cccc(Nc3cc(NC(=O)C4CC4)nnc3C(=O)NC)c2OC)nc1" ): 13.7

---
In plain terms, "CNC(=O)c1cnc(NC(=O)C2CC2)cc1Nc1cccc(-c2ncc(S(=O)(=O)C(C)C)cn2)c1OC" has a documented GI50 of 2

The recorded GI50 for entry CNC(=O)c1nnc(NC(=O)C2CC2)cc1Nc1cccc(-c2ccc(S(=N)(=O)C(C)C)nn2)c1OC (single isomer, unassigned) [WX-036A] equals 8.3

###

experiment: Pharmacokinetic testing in rats; assay type: in vivo, male SD rats; settings: male, SD, plasma; rat, IV 3 mg/kg; read-out: Starting concentration C0
VALUE_KIND: C0
Be sure to follow the number with its unit.

Field C0 (entry "CNC(=O)c1cnc(NC(=O)C2CC2)cc1Nc1cccc(-c2ccc(S(=O)(=O)C(C)C)cn2)c1OC" ) reads 3.03 µM

###

target: TYK2 JH2 pseudokinase (Homo sapiens, UniProt P29597); test: Inhibitory activity on TYK2 JH2 pseudokinase (TR-FRET); settings: 60 min room temperature, read-out: Kinase half maximal inhibitory concentration IC50 TYK2 JH2
Sequence (P29597 589-875 limits assumed): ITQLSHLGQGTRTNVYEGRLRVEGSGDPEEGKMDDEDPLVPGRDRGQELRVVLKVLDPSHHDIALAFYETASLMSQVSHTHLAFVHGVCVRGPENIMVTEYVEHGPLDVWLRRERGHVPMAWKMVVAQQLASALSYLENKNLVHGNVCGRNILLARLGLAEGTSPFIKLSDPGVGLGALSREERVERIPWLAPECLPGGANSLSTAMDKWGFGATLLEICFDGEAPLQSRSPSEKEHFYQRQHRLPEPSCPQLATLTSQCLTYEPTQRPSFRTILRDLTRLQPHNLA
Structures can show the parent of a compound that is named as a salt.
VALUE_KIND: pIC50
Scale for pIC50: -log10 of concentration given in mol/L; no unit attached.

Examples with answers:
Lab entry: TYK2 JH2 pseudokinase (Homo sapiens, UniProt P29597) assay, compound [2H]C([2H])([2H])NC(=O)c1cnc(NC(=O)C2CC2)cc1Nc1cccc(-c2ncc(S(C)(=O)=O)cn2)c1OC [Hydrochloride of WX-001] , pIC50 = 9.57

Test item CNC(=O)c1cnc(NC(=O)C2CC2)cc1Nc1cccc(-c2ccc(S(=O)(=O)C(C)C)cn2)c1OC.Cl [Hydrochloride of WX-020] ; TYK2 JH2 pseudokinase (Homo sapiens, UniProt P29597); reported pIC50 was 10.10

Response field pIC50 (TYK2 JH2 pseudokinase (Homo sapiens, UniProt P29597)) for item CNC(=O)c1nnc(NC(=O)C2CC2)cc1Nc1cccc(-c2ccc(S(=N)(=O)C(C)C)cn2)c1OC (single isomer, unassigned) [WX-012B] : 10.10

Continuing:
# lookup: CNC(=O)c1nnc(NC(=O)C2CC2)cc1Nc1cccc(-c2ncc(S(=N)(=O)C(C)C)cn2)c1OC (single isomer, unassigned) [WX-011B] on TYK2 JH2 pseudokinase (Homo sapiens, UniProt P29597), pIC50 = 10.10

Response field pIC50 (TYK2 JH2 pseudokinase (Homo sapiens, UniProt P29597)) for item CNC(=O)c1cnc(NC(=O)C2CC2)cc1Nc1cccc(-c2ncc(S(=O)(=O)C(C)C)cn2)c1OC [WX-019] : 10.05

Assay TYK2 JH2 pseudokinase (Homo sapiens, UniProt P29597), sample CNC(=O)c1cnc(NC(=O)C2CC2)cc1Nc1cccc(-c2ncc(S(=O)(=O)N3CCC3)cn2)c1OC [Hydrochloride of WX-018] , pIC50 read: 9.89

CNC(=O)c1nnc(NC(=O)C2CC2)cc1Nc1cccc(-c2ccc(S(=N)(=O)C(C)C)cn2)c1OC (single isomer, unassigned) [WX-012A] tested on TYK2 JH2 pseudokinase (Homo sapiens, UniProt P29597) gave pIC50: 10.10

Record [2H]C([2H])([2H])NC(=O)c1cnc(NC(=O)C2CC2)cc1Nc1cccc(-c2ncc([S+](C)[O-])cn2)c1OC (stereo not drawn) [Hydrochloride of WX-002] ; system TYK2 JH2 pseudokinase (Homo sapiens, UniProt P29597); pIC50 = 9.72

Kindly note: TYK2 JH2 pseudokinase (Homo sapiens, UniProt P29597), CNC(=O)c1nnc(NC(=O)C2CC2)cc1Nc1cccc(-c2ccc(P(=O)(C3CC3)C3CC3)cn2)c1OC [WX-021] , pIC50 value reported: 10.10
